Target: Integrin alpha-V/beta-3 (Homo sapiens, UniProt P05106+P06756)
Assay: Inhibition of vitronectin binding to recombinant human integrin alphaV (Phe31 to Val992 residues) beta3 (Gly27 to Asp718 residues) expressed in CHO cells by ELISA based solid phase binding assay
Mark Satisfied only when IC50 stays strictly below 10 nM. Values equal to the cut-off are Not satisfied.

The examples below pair each entry with its known result.
1. CC1(C)NC(=O)[C@@H](Cc2ccccc2)NC(=O)[C@H](CC(=O)O)NC(=O)CNC(=O)[C@H](CCCNC(=N)N)NC1=O	Satisfied
2. C[Si]1(C)C[C@@H]2C(=O)N[C@@H](CCCNC(=N)N)C(=O)NCC(=O)NC(CC(=O)O)C(=O)NC(Cc3ccccc3)C(=O)N2C1 (single isomer, unassigned)	Not satisfied
3. COc1c2cccc1C(=O)N[C@@H](CCCNC(=N)N)C(=O)NCC(=O)N[C@@H](CC(=O)O)C(=O)N[C@H](Cc1ccccc1)C(=O)N2	Not satisfied

Consider the record given below.
Challenge: Could you please tell me whether IC50 recorded for N=C(N)NCCC[C@@H]1NC(=O)C2(CCCCC2)NC(=O)[C@@H](Cc2ccccc2)NC(=O)[C@H](CC(=O)O)NC(=O)CNC1=O is less than 10 nM?
Response given: Satisfied

// data source = ChEMBL document CHEMBL4627306
